tested on: gel-filtered platelets; assay: In vitro inhibition of thrombin-induced gel-filtered platelet aggregation; format: cell-based; details: Platelet; human gel-filtered platelets; agonist thrombin 50 μL of 1 unit/mL; read-out: Thrmb IC50 (Thrombin-induced aggregation of gel-filtered platelets)
pIC50: −log10 of the molar value.
Consider the following molecules and their measured pIC50 readings.
recorded endpoint: pIC50

[[record]]
smi = "COc1ccccc1CCNC(=O)[C@H](CCCNC(=N)N)NC(=O)[C@H](Cc1ccc(F)c(F)c1)NC(=O)Nc1ccc2c(CN3CCCC3)cn(Cc3ccccc3C)c2c1"
recorded_endpoint = "pIC50"
data_value = 6.00

[[record]]
smi = "CSCC[C@H](NC(=O)[C@H](Cc1ccc(F)c(F)c1)NC(=O)Nc1ccc2c(CN3CCCC3)cn(Cc3c(Cl)cccc3Cl)c2c1)C(=O)NCc1ccccc1"
recorded_endpoint = "pIC50"
data_value = 6.28

[[record]]
smi = "N=C(N)NCCC[C@H](NC(=O)[C@@H]1CCCN1C(=O)Nc1ccc2c(CN3CCCC3)cn(Cc3c(Cl)cccc3Cl)c2c1)C(=O)NCc1ccccc1"
recorded_endpoint = "pIC50"
data_value = 5.74


====

system: gel-filtered platelets; assay: In vitro inhibition of thrombin-induced gel-filtered platelet aggregation; type: cell-based; conditions: Platelet; human gel-filtered platelets; agonist thrombin 50 μL of 1 unit/mL; read-out: Thrmb IC50 (Thrombin-induced aggregation of gel-filtered platelets)
recorded endpoint: IC50 (µM)

[[record]]
smi = "COc1ccc(C[C@H](NC(=O)Nc2ccc3c(CN4CCCC4)cn(Cc4cccc(F)c4)c3c2)C(=O)N[C@@H](CCCNC(=N)N)C(=O)NCc2ccccc2)cc1"
recorded_endpoint = "IC50"
relation_qualifier = "="
data_value = 3.5

[[record]]
smi = "Cc1ccccc1Cn1cc(CN2CCCC2)c2ccc(NC(=O)N[C@H](C(=O)N[C@@H](CCCNC(=N)N)C(=O)NCc3ccccc3)c3ccccc3)cc21"
recorded_endpoint = "IC50"
relation_qualifier = ">"
data_value = 10

[[record]]
smi = "CC(C)[C@H](NC(=O)[C@H](Cc1ccc(Cl)cc1)NC(=O)Nc1ccc2c(CN3CCCC3)cn(Cc3c(Cl)cccc3Cl)c2c1)C(=O)NCCN"
recorded_endpoint = "IC50"
relation_qualifier = "="
data_value = 1.4


====

biological target: thrombin receptor (PAR-1) (Homo sapiens, UniProt P25116); construct: CHRF membranes (Jones, Biochim. Biophys. Acta 1992, 1136, 272) are thawed from −70° C; endogenous in cells; experiment: In vitro thrombin receptor binding assay (CHRF membranes); settings: tritiated 721-40 radioligand, read-out: Bndg IC50 (Thrombin receptor binding)
Sequence (P25116 22-425): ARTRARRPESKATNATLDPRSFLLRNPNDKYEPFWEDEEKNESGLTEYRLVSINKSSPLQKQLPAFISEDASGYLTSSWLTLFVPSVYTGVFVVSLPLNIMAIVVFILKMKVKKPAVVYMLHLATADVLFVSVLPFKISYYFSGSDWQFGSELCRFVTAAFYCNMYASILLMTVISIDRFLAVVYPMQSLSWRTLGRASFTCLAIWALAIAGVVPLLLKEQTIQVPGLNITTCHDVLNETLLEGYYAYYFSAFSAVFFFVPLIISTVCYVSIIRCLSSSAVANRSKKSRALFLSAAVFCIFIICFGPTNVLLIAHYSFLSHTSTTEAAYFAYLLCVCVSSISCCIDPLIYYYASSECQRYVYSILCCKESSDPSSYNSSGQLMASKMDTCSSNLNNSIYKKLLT
recorded endpoint: log10(IC50) (log10 of the value in µM)

[[record]]
compound = "NCCNC(=O)[C@H](Cc1cscn1)NC(=O)[C@H](Cc1ccc(Cl)cc1)NC(=O)Nc1ccc2c(CN3CCCC3)cn(Cc3c(Cl)cccc3Cl)c2c1 [Compound 137]"
data_value = -0.09

[[record]]
compound = "NCC[C@H](NC(=O)[C@H](Cc1ccc(F)c(F)c1)NC(=O)Nc1cccc2c1c(CN1CCCC1)cn2Cc1c(Cl)cccc1Cl)C(=O)NCCN1CCCC1 [Compound 166]"
data_value = 0.30

[[record]]
compound = "COc1ccc(C[C@H](NC(=O)Nc2ccc3c(CN4CCCC4)cn(Cc4ccccc4F)c3c2)C(=O)N[C@@H](CCCNC(=N)N)C(=O)NCc2ccccc2)cc1 [Compound 7]"
data_value = 0.56

[[record]]
compound = "NCCNC(=O)[C@H](CSC(c1ccccc1)(c1ccccc1)c1ccccc1)NC(=O)[C@H](Cc1ccc(F)c(F)c1)NC(=O)Nc1ccc2c(CN3CCCC3)cn(Cc3c(Cl)cccc3Cl)c2c1 [Compound 151]"
data_value = -0.35

[[record]]
compound = "N=C(N)NCCC[C@H](NC(=O)[C@H](Cc1ccc2ccccc2c1)NC(=O)Nc1ccc2c(CN3CCCC3)cn(Cc3c(Cl)cccc3Cl)c2c1)C(=O)NCc1ccccc1 [Compound 38]"
data_value = 1.53

